Biological target: DNA topoisomerase 1 (Homo sapiens) (UniProt P11387)
Assay: Inhibition of human recombinant DNA topoisomerase 1-mediated DNA relaxation at 20 uM incubated for 30 mins using pBR322 DNA substrate by ethidium bromide dye-based agarose gel electrophoresis
Use 70% as the dividing line for inhibition, with the line itself on the satisfied side and lower values as not satisfied.

Record excerpt, results attached:
{"columns": ["molecule", "assay_target", "classification"],
 "data": [
  ["COc1ccc(-c2cc3ccccc3c(-c3cccc(OC)c3)n2)cc1", "DNA topoisomerase 1 (Homo sapiens) (UniProt P11387)", "not satisfied"],
  ["COc1ccc(-c2cc3ccccc3c(-c3cccc(OCCCN(C)C)c3)n2)cc1", "DNA topoisomerase 1 (Homo sapiens) (UniProt P11387)", "not satisfied"]
]}

// query Determine whether this compound has inhibition no lower than 70%: COc1ccc(-c2cc3cc(C)ccc3c(-c3cccc(N)c3)n2)c(C)c1
// result satisfied

// query Determine whether this compound has inhibition no lower than 70%: COc1ccc(-c2cc3cc(C)ccc3c(-c3cccc(OCCCN(C)C)c3)n2)c(C)c1
// result not satisfied

// query Determine whether this compound has inhibition no lower than 70%: COc1ccc(-c2cc3cc(C)ccc3c(-c3ccc(OCCN(C)C)cc3)n2)cc1OC
// result not satisfied

----------
Molecular target: UniProtKB P11387
Test: Inhibition of human recombinant DNA topoisomerase 1-mediated DNA relaxation at 100 uM incubated for 30 mins using pBR322 DNA substrate by ethidium bromide dye-based agarose gel electrophoresis relative to control camptothecin
Reported Ratio values for the following molecules.

Examples with their reported Ratio follow.
{"columns": ["molecule", "Ratio"],
 "data": [
  ["COc1cc(OC)cc(-c2cc3cc(OC)c(OC)cc3c(-c3cccc(O)c3)n2)c1", 0.06],
  ["COc1cc(OC)cc(-c2cc3ccccc3c(-c3cccc(N)c3)n2)c1", 0],
  ["COc1cc(OC)cc(-c2cc3ccc(N(C)C)cc3c(-c3cccc(N)c3)n2)c1", 1.12],
  ["COc1ccc(-c2cc3ccccc3c(-c3cccc(O)c3)n2)cc1", 0.12],
  ["COc1ccc(-c2cc3cc(C)ccc3c(-c3cccc(N)c3)n2)c(C)c1", 1.22],
  ["COc1ccc(-c2cc3ccccc3c(-c3cccc(OCCCN(C)C)c3)n2)cc1", 0.81]
]}

Moving on to another molecule below.
// query Value lookup for Ratio; key = COc1ccc(-c2cc3cc(C)ccc3c(-c3ccc(OCCN(C)C)cc3)n2)cc1OC
// result 1.22

----------
Reported Ratio values for the following compounds.
Molecular target: DNA topoisomerase 2-alpha (Homo sapiens) (UniProt P11388)
Sequence (P11388 whole entry): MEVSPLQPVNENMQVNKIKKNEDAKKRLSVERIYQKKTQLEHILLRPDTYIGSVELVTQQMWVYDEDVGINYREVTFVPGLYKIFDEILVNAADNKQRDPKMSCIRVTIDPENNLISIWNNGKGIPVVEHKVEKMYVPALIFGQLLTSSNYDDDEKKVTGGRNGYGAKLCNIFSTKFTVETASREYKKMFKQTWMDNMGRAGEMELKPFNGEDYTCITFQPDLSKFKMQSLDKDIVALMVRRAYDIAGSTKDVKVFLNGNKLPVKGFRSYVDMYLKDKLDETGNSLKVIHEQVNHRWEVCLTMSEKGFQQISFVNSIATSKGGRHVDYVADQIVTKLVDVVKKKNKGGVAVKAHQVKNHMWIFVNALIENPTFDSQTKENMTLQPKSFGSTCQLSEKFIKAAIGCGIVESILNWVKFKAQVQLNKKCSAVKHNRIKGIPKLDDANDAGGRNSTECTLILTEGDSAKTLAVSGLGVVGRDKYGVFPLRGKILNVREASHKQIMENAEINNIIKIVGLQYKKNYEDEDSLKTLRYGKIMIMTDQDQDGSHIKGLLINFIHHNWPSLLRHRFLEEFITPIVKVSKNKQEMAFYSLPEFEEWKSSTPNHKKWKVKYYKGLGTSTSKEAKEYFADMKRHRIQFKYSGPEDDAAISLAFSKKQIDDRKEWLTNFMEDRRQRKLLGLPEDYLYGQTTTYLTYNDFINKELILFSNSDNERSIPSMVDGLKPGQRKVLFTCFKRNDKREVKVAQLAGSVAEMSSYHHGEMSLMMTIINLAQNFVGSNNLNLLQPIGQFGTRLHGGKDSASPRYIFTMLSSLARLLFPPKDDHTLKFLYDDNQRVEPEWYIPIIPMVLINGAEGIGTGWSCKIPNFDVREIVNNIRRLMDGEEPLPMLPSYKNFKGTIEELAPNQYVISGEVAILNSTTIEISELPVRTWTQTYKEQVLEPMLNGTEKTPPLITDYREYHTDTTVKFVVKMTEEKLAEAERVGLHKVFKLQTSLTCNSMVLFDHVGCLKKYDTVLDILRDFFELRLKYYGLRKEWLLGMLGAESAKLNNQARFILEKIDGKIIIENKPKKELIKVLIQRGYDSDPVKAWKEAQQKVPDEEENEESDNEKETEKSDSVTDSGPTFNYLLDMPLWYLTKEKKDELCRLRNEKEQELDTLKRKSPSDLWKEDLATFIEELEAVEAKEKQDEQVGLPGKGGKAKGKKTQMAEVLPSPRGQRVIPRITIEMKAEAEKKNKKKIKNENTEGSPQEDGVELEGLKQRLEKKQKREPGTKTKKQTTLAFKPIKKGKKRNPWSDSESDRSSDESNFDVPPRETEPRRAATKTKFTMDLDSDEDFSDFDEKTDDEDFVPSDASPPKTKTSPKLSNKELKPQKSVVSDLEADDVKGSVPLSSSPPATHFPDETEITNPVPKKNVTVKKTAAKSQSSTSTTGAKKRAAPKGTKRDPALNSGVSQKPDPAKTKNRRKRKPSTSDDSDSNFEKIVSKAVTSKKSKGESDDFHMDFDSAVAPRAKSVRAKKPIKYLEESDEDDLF
Assay: Inhibition of human DNA topoisomerase 2 alpha-mediated DNA relaxation at 100 uM incubated for 30 mins using pBR322 DNA substrate by ethidium bromide dye-based agarose gel electrophoresis relative to control etoposide
Just the number, please, no unit after it.

Examples with their reported Ratio follow.
{"columns": ["molecule", "value_observed"],
 "data": [
  ["COc1ccc(-c2cc3ccccc3c(-c3cccc(OC)c3)n2)cc1", 0],
  ["COc1cc(OC)cc(-c2cc3ccccc3c(-c3cccc(OC)c3)n2)c1", 0.26],
  ["COc1ccc(-c2cc3cc(C)ccc3c(-c3cccc(OCCN(C)C)c3)n2)c(C)c1", 0.81],
  ["COc1ccc(-c2cc3cc(C)ccc3c(-c3cccc(O)c3)n2)cc1OC", 0.38],
  ["COc1cc(OC)cc(-c2cc3ccccc3c(-c3cccc(N)c3)n2)c1", 0.37]
]}

// query API: value(readout= Ratio, system= DNA topoisomerase 2-alpha (Homo sapiens) (UniProt P11388), query= COc1cccc(-c2nc(-c3ccc(OC)c(OC)c3)cc3cc(C)ccc23)c1 )
// result 0

// query API: value(readout= Ratio, system= DNA topoisomerase 2-alpha (Homo sapiens) (UniProt P11388), query= COc1ccc(-c2cc3cc(C)ccc3c(-c3cccc(N)c3)n2)cc1OC )
// result 0.11

// query API: value(readout= Ratio, system= DNA topoisomerase 2-alpha (Homo sapiens) (UniProt P11388), query= COc1cc(OC)cc(-c2cc3ccc(N(C)C)cc3c(-c3cccc(N)c3)n2)c1 )
// result 0.04

// query API: value(readout= Ratio, system= DNA topoisomerase 2-alpha (Homo sapiens) (UniProt P11388), query= COc1ccc(-c2cc3cc(C)ccc3c(-c3cccc(OCCCN(C)C)c3)n2)c(C)c1 )
// result 0.67

// query API: value(readout= Ratio, system= DNA topoisomerase 2-alpha (Homo sapiens) (UniProt P11388), query= COc1cc(OC)cc(-c2cc3cc(OC)c(OC)cc3c(-c3cccc(O)c3)n2)c1 )
// result 0

// query API: value(readout= Ratio, system= DNA topoisomerase 2-alpha (Homo sapiens) (UniProt P11388), query= COc1cc(OC)cc(-c2cc3ccccc3c(-c3ccc(O)cc3)n2)c1 )
// result 0.82

// query API: value(readout= Ratio, system= DNA topoisomerase 2-alpha (Homo sapiens) (UniProt P11388), query= COc1ccc(-c2cc3ccccc3c(-c3ccc(OC)cc3)n2)cc1 )
// result 0.11

----------
Target: DNA topoisomerase 2-alpha (Homo sapiens) (UniProt P11388)
Experiment: Inhibition of human DNA topoisomerase 2 alpha-mediated DNA relaxation at 100 uM incubated for 30 mins using pBR322 DNA substrate by ethidium bromide dye-based agarose gel electrophoresis
Reported inhibition values for the following compounds.
Give the quantity in %, number only.

// query Value lookup for inhibition; key = COc1cc(OC)cc(-c2cc3ccccc3c(-c3cccc(O)c3)n2)c1
// result 37.3

----------
Biological target: DNA topoisomerase 2-alpha (Homo sapiens)
Assay: Inhibition of human DNA topoisomerase 2 alpha-mediated DNA relaxation at 20 uM incubated for 30 mins using pBR322 DNA substrate by ethidium bromide dye-based agarose gel electrophoresis relative to control etoposide
Reported Ratio values for the following compounds.
Just the number, please, no unit after it.

Examples with their reported Ratio follow.
{"columns": ["molecule", "assay_target", "attribute_measured", "value_observed"],
 "data": [
  ["COc1ccc(-c2cc3cc(C)ccc3c(-c3cccc(OCCCN(C)C)c3)n2)c(C)c1", "DNA topoisomerase 2-alpha (Homo sapiens)", "Ratio", 0.28],
  ["COc1ccc(-c2cc3cc(C)ccc3c(-c3cccc(O)c3)n2)cc1OC", "DNA topoisomerase 2-alpha (Homo sapiens)", "Ratio", 0.01],
  ["COc1cc(OC)cc(-c2cc3ccccc3c(-c3cccc(O)c3)n2)c1", "DNA topoisomerase 2-alpha (Homo sapiens)", "Ratio", 0.9],
  ["COc1cc(OC)cc(-c2cc3ccccc3c(-c3ccc(O)cc3)n2)c1", "DNA topoisomerase 2-alpha (Homo sapiens)", "Ratio", 1.17],
  ["COc1ccc(-c2cc3cc(C)ccc3c(-c3cccc(OCCN(C)C)c3)n2)c(C)c1", "DNA topoisomerase 2-alpha (Homo sapiens)", "Ratio", 0.35],
  ["COc1ccc(-c2cc3ccccc3c(-c3cccc(O)c3)n2)cc1", "DNA topoisomerase 2-alpha (Homo sapiens)", "Ratio", 0],
  ["COc1ccc(-c2cc3cc(C)ccc3c(-c3ccc(OCCN(C)C)cc3)n2)cc1OC", "DNA topoisomerase 2-alpha (Homo sapiens)", "Ratio", 0.41]
]}

// query Value lookup for Ratio; key = COc1ccc(-c2cc3cc(C)ccc3c(-c3ccc(O)cc3)n2)cc1OC
// result 0

----------
Target: DNA topoisomerase 1 (Homo sapiens)
Sequence (whole entry): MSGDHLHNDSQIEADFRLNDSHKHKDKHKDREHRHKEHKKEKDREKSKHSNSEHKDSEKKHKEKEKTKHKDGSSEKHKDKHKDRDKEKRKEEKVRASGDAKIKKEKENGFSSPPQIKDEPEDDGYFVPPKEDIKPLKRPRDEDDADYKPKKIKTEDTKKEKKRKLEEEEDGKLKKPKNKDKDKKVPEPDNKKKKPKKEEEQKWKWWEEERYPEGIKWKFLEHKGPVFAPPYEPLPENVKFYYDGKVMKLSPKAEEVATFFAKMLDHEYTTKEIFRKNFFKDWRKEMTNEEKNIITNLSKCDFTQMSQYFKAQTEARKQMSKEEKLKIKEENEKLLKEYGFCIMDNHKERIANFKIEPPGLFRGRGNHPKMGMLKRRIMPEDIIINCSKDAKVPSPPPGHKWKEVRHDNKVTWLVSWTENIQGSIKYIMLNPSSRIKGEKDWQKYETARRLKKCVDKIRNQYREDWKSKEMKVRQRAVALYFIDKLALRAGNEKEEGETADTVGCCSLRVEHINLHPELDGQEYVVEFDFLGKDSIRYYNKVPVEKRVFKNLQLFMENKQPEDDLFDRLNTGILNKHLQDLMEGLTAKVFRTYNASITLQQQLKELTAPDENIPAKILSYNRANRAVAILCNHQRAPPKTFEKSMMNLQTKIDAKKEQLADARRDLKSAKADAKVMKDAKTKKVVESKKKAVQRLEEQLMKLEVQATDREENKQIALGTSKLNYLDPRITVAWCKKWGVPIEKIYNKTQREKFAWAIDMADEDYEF
Assay: Inhibition of human recombinant DNA topoisomerase 1-mediated DNA relaxation at 20 uM incubated for 30 mins using pBR322 DNA substrate by ethidium bromide dye-based agarose gel electrophoresis relative to control camptothecin
Reported Ratio values for the following compounds.

// query Value lookup for Ratio; key = COc1ccc(-c2cc3cc(C)ccc3c(-c3ccc(OCCN(C)C)cc3)n2)cc1OC
// result 0
